Cited source for all entries: patent US11352396B2

system: MSSP (Methicillin-Susceptible Staphylococcus pseudintermedius); experiment: MIC against selected strains of MSSP; format: cell-based; design: unit: µM; conditions: strain 84658, Table 5
Measured Effect on MSSP 84658 of individual entries
ASSAY READOUT: Effect on MSSP 84658

{"columns": ["SUBSTANCE", "VAL"],
 "data": [
  ["103 (KWCFRVCKRGICYRRCRD; Artificial Antimicrobial peptide) [compound 103]", 3.1],
  ["102 (KWCFRACYRGICYRRCRD; Artificial Antimicrobial peptide) [compound 102]", 1.6],
  ["113 (KWCFRVCYRGICYRRCAD; Artificial Antimicrobial peptide) [compound 113]", 1.6],
  ["30 (PWCFRVCYRGICYRRCR; Artificial Antimicrobial peptide) [compound 30]", 1.6],
  ["115 (GWCFRVCYRGICYRRCND; Artificial Antimicrobial peptide) [compound 115]", 1.6],
  ["110 (KWCFRVCYRGYCYRRCRD; Artificial Antimicrobial peptide) [compound 110]", 3.1],
  ["100 (KWCFWVCYRGICYRRCRD; Artificial Antimicrobial peptide) [compound 100]", 1.6]
]}
